tested on: Fibroblast; assay: Multiplex assay against human fibroblast; type: toxicity, cell-based; settings: 12 h, 10 µM, compound concentration 10 uM, replicate 1
Field: Population Hoechst High Intensity Objects (%). Provide a value for each of the compounds that follow.

Examples with their reported Population Hoechst High Intensity Objects (%) follow.
>>> value("CCOc1ccn(-c2ccc(F)cc2)c(=O)c1C(=O)Nc1ccc(Oc2ccnc(N)c2Cl)c(F)c1")
"15%"
>>> value("Cl.Cn1c2c(c3ccc(Cl)c(Cl)c31)C(C#N)C1(CCNCC1)NC2=O (configuration not stated)")
"19%"
>>> value("CCOC(=O)CCNc1cc(N2CCc3ccccc3CC2)nc(-c2ccccn2)n1")
"17%"
>>> value("C=CC(=O)Nc1cc(-n2c(=O)ccc3cnc4ccc(-c5ccc(NS(C)(=O)=O)cc5)cc4c32)ccc1C")
"8%"
>>> value("c1ccc(-c2oc3ncnc(NC[C@@H]4CCCO4)c3c2-c2ccccc2)cc1")
"20%"
>>> value("N#CCNC(=O)c1ccc(-c2ccnc(Nc3ccc(N4CCOCC4)cc3)n2)cc1")
"13%"
>>> value("Cc1ccc(NC(=O)Nc2cc(C(F)(F)F)ccc2F)cc1Nc1ccc2c(c1)NC(=O)/C2=C\\c1ccc[nH]1")
"17%"
>>> value("Cc1ccc(S(=O)(=O)NC2c3ccccc3Oc3ccccc32)cc1")
"17%"

Batch of 4 compounds: report Population Hoechst High Intensity Objects (%) for each.
1. CCCCN(CC)c1nc(C)nc2c1c(C)cn2-c1c(C)cc(C)cc1C.Cl
2. Cc1c(Nc2ccc(S(=O)(=O)N3CCN(C)CC3)cc2F)nc2ccc(Nc3cnn(C4CC4)c3)cn2c1=O
3. CC(/C=C1\SC(=S)N(CCCC(=O)Nc2ccc(C(=O)O)c(O)c2)C1=O)=C\c1ccccc1
4. C[C@@H](Oc1cc(-n2cnc3ccc(CN4CCN(C)CC4)cc32)sc1C(N)=O)c1ccccc1C(F)(F)F

13%
12%
61%
25%

The reported numbers originate from ChEMBL document CHEMBL4689842.
